Target: T1, prostate-specific antigen (PSA), uncomplexed free PSA (Homo sapiens, UniProt P07288)
T1 construct: prostate-specific antigen (PSA), human kallikrein; uncomplexed (free) form; also called fPSA; source: bought: Merck (ELISA)
T1 sequence (P07288 25-261, one chain of several): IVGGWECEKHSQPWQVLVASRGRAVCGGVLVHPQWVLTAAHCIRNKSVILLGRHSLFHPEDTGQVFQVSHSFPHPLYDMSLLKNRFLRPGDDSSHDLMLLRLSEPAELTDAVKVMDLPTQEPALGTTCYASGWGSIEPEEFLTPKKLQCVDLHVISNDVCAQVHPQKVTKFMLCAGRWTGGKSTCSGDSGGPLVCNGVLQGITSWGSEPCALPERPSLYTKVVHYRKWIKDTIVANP
Experiment: SPR; Biacore 2000; PSA immobilised on a CM4 chip by amine coupling (900-1000 RU); antibodies at 100, 50, 25, 12.5 and 10 nM in HSP-buffer flown at 30 uL/min; association 4-5 min, dissociation up to 480 min; bi-exponential fits to binding and dissociation curves; KD = Koff/Kon
Details: both partners purified
Known Kd of a selection of binders
Just the number in nM, nothing appended.

Here is how some binders turned out for Kd.
binder: murine 5A10 conjugated with p-SCN-Bn-CHX-A''-DTPA (antibody, V domains shown, as the heavy chain variable domain of m2; murine IgG1 heavy chain constant region, as in m2; as the light chain variable domain of m2; as the light chain constant region of m2; Murine IgG1; also called m5A10-DTPA; DTPA-m5A10; source: provided by the University of Turku (Finland); conjugated with p-SCN-Bn-CHX-A''-DTPA and separated from free chelate on a NAP-5 column) VH: EVQLVESGPGILQPSQTLSLTCSFSGFSLSTTGMGVSWIRQPSGKGLEWLAHLYWDEDKRYNPSLKSRLTISEDSSRNQVFLKITSVGPADSATYYCARKGYYGYFDYWGQGTALTVSS VL: DIVMTQSQKFMSTSVGDRVSVTCKASQNVNTDVAWYQQKPGQSPKALIFSTSYRSSGVPDRFTGSGSGTDFTLTITNVQSEDLAEYFCQQYSNYPLTFGAGTKVDLN
Kd (nM): 0.023
--
binder: humanized 5A10 IgG1 (antibody, V domains shown, heavy chain variable domain of h5A10; IgG1 heavy chain constant region; light chain variable domain of h5A10; light chain constant region; not described, only the plasmid name p5A10VlhDhK hints at human kappa; IgG1; Light chain constant region probably human kappa (surmised from the plasmid name and the Vk1 template); also called h5A10; humanized antibody h5A10; source: HEK293 cells, transfected; …) VH: QVTLKESGPALVKPTQTLTLTCTFSGFSLSTTGMGVSWIRQPPGKALEWLAHIYWDDDKRYSTSLKTRLTISEDSSKNQVVLTMTNMDPVDTATYYCARKGYYGYFDYWGQGTLVTVSS VL: DIQMTQSPSSLSASVGDRVTVTCRASQNVNTDVAWYQQKPGKAPKALIFSTSYLQSGVPSRFSGSGSGTDFTLTISSLQPEDFATYYCQQYSNYPLTFGQGTKVEIK
Kd (nM): 0.0077
--
binder: humanized 5A10 conjugated with p-SCN-Bn-CHX-A''-DTPA (antibody, V domains shown, as the heavy chain variable domain of m1; IgG1 heavy chain constant region, as in m1; as the light chain variable domain of m1; as the light chain constant region of m1; not described; IgG1; 111In labelling used the 3:1 conjugate, 177Lu labelling the 12:1 conjugate; also called h5A10-DTPA; DTPA-h5A10; source: HEK293 cells, transfected; purified by Protein G chromatography; conjugated with …) VH: QVTLKESGPALVKPTQTLTLTCTFSGFSLSTTGMGVSWIRQPPGKALEWLAHIYWDDDKRYSTSLKTRLTISEDSSKNQVVLTMTNMDPVDTATYYCARKGYYGYFDYWGQGTLVTVSS VL: DIQMTQSPSSLSASVGDRVTVTCRASQNVNTDVAWYQQKPGKAPKALIFSTSYLQSGVPSRFSGSGSGTDFTLTISSLQPEDFATYYCQQYSNYPLTFGQGTKVEIK
Kd (nM): 0.012

Now consider a different binder.
Q: Using known records, supply Kd for murine 5A10 monoclonal IgG1 (antibody, V domains shown, heavy chain variable domain of m5A10; murine IgG1 heavy chain constant region; light chain variable domain of m5A10; light chain constant region; Murine IgG1; also called m5A10; parental murine antibody m5A10; source: provided by the University of Turku (Finland), prepared as previously described [8]) VH: EVQLVESGPGILQPSQTLSLTCSFSGFSLSTTGMGVSWIRQPSGKGLEWLAHLYWDEDKRYNPSLKSRLTISEDSSRNQVFLKITSVGPADSATYYCARKGYYGYFDYWGQGTALTVSS VL: DIVMTQSQKFMSTSVGDRVSVTCKASQNVNTDVAWYQQKPGQSPKALIFSTSYRSSGVPDRFTGSGSGTDFTLTITNVQSEDLAEYFCQQYSNYPLTFGAGTKVDLN
Result: 0.022

All figures here come from paper PMC8703390.
